# Tested on: SKMEL-28 cells
# experimental_protocol: RT-qPCR of LXR-responsive genes
# Format: cell-based, human
# experimental_setup: SKMEL-28, siLXRβ, 8 h; 2.5 µM DDA, 10 µM 22(R)HC, 1 µM GW, 100 nM TO; vs vehicle
metric_name: NOR1 mRNA (fold)
Just the number in fold, nothing appended.

Below: 3 compounds and their reported NOR1 mRNA.
compound	units_symbol	recorded_result
CC(C)CCC[C@@H](C)[C@H]1CC[C@H]2[C@@H]3C[C@@H](NCCc4cnc[nH]4)[C@@]4(O)C[C@@H](O)CC[C@]4(C)[C@H]3CC[C@]12C	fold	1.0
CC(C)CC[C@@H](O)[C@@H](C)[C@H]1CC[C@H]2[C@@H]3CC=C4C[C@@H](O)CC[C@]4(C)[C@H]3CC[C@]12C [22(R)HC, 22(R)-hydroxycholesterol]	fold	1.2
O=S(=O)(c1ccccc1)N(CC(F)(F)F)c1ccc(C(O)(C(F)(F)F)C(F)(F)F)cc1	fold	1.0

Query: Name the recorded NOR1 mRNA of the compound listed here: `O=C(O)Cc1cccc(OCCCN(Cc2cccc(C(F)(F)F)c2Cl)CC(c2ccccc2)c2ccccc2)c1`
Result: 0.8

* * *

Entries annotated with measured SREBP1 mRNA
# Tested on: SKMEL-28 cells
# experimental_protocol: RT-qPCR of LXR-responsive genes
# Type: cell-based, human
# experimental_setup: SKMEL-28, siCT, 8 h; 2.5 µM DDA, 10 µM 22(R)HC, 1 µM GW, 100 nM TO; vs vehicle
Just the number in fold, nothing appended.

compound	experimental_system	units_symbol	SREBP1 mRNA
O=S(=O)(c1ccccc1)N(CC(F)(F)F)c1ccc(C(O)(C(F)(F)F)C(F)(F)F)cc1 [TO, TO901317]	SKMEL-28 cells	fold	1.8
CC(C)CCC[C@@H](C)[C@H]1CC[C@H]2[C@@H]3C[C@@H](NCCc4cnc[nH]4)[C@@]4(O)C[C@@H](O)CC[C@]4(C)[C@H]3CC[C@]12C [DDA, Dendrogenin A]	SKMEL-28 cells	fold	0.9
O=C(O)Cc1cccc(OCCCN(Cc2cccc(C(F)(F)F)c2Cl)CC(c2ccccc2)c2ccccc2)c1 [GW, GW3965]	SKMEL-28 cells	fold	2.6

Then there is this compound:
Query: Name the recorded SREBP1 mRNA of the compound listed here: CC(C)CC[C@@H](O)[C@@H](C)[C@H]1CC[C@H]2[C@@H]3CC=C4C[C@@H](O)CC[C@]4(C)[C@H]3CC[C@]12C [22(R)HC, 22(R)-hydroxycholesterol]
Result: 2.3

* * *

# Tested on: SKMEL-28 cells
# experimental_protocol: RT-qPCR of LXR-responsive genes
# Assay type: cell-based, human
# experimental_setup: SKMEL-28, siLXRβ, 8 h; 2.5 µM DDA, 10 µM 22(R)HC, 1 µM GW, 100 nM TO; vs vehicle
metric_name: SREBP1 mRNA (fold)
Just the number in fold, nothing appended.

Below: 2 compounds and their reported SREBP1 mRNA.
compound	metric_name	recorded_result
O=S(=O)(c1ccccc1)N(CC(F)(F)F)c1ccc(C(O)(C(F)(F)F)C(F)(F)F)cc1	SREBP1 mRNA	1.3
CC(C)CCC[C@@H](C)[C@H]1CC[C@H]2[C@@H]3C[C@@H](NCCc4cnc[nH]4)[C@@]4(O)C[C@@H](O)CC[C@]4(C)[C@H]3CC[C@]12C	SREBP1 mRNA	1.0

Query: Name the recorded SREBP1 mRNA of the compound listed here: `O=C(O)Cc1cccc(OCCCN(Cc2cccc(C(F)(F)F)c2Cl)CC(c2ccccc2)c2ccccc2)c1`
Result: 1.5

Query: Name the recorded SREBP1 mRNA of the compound listed here: CC(C)CC[C@@H](O)[C@@H](C)[C@H]1CC[C@H]2[C@@H]3CC=C4C[C@@H](O)CC[C@]4(C)[C@H]3CC[C@]12C [22(R)HC, 22(R)-hydroxycholesterol]
Result: 0.9

Hello, the source for this data is paper PMC5712521, in case you need it.
